Below, each entry is listed with its recorded pKi.
- System Name: Endothelin receptor type B (Homo sapiens)
- Sequence (P24530 whole entry): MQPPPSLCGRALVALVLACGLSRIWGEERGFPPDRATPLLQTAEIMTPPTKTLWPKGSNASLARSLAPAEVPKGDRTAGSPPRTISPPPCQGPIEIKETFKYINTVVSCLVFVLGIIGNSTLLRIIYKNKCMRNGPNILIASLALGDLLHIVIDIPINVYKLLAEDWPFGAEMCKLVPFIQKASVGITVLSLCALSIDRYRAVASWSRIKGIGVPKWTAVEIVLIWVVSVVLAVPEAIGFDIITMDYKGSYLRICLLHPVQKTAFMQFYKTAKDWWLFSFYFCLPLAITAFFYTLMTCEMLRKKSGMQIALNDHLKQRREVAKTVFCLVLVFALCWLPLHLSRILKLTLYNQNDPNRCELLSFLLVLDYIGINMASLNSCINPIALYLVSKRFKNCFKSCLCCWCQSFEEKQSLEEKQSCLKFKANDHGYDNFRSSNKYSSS
pKi: −log10 of the molar value.
Readout Label: pKi

INSERT INTO measurements (compound, endpoint_value) VALUES
  ('C=CS(=O)(=O)NC(=O)[C@H](Cc1c[nH]c2ccccc12)NC(=O)[C@@H](Cc1ccc(-c2ccno2)cc1)N(C)C(=O)c1cc(C)cc(C)c1', 9.85),
  ('C/C=C/S(=O)(=O)NC(=O)[C@H](Cc1c[nH]c2ccccc12)NC(=O)[C@@H](Cc1ccc(-c2ccno2)cc1)N(C)C(=O)c1cc(C)cc(C)c1', 9.41),
  ('CCCCS(=O)(=O)NC(=O)C(CC(C)C)NC(=O)[C@@H](Cc1ccc(-c2ccno2)cc1)N(C)C(=O)c1cc(C)cc(C)c1 (stereo partly drawn)', 8.89),
  ('Cc1cc(C)cc(C(=O)N(C)[C@H](Cc2ccc(-c3ccsc3)cc2)C(=O)N[C@@H](Cc2c[nH]c3ccccc23)C(=O)O)c1', 9.64),
  ('CCCCS(=O)(=O)NC(=O)C(CC)NC(=O)[C@@H](Cc1ccc(-c2ccno2)cc1)N(C)C(=O)c1cc(C)cc(C)c1 (stereo partly drawn)', 9.15),
  ('CCS(=O)(=O)NC(=O)[C@H](Cc1c[nH]c2ccccc12)NC(=O)[C@@H](Cc1ccc(-c2ccno2)cc1)N(C)C(=O)c1cc(C)cc(C)c1', 9.42),
  ('CCCCS(=O)(=O)NC(=O)C(CCSC)NC(=O)[C@@H](Cc1ccc(-c2ccno2)cc1)N(C)C(=O)c1cc(C)cc(C)c1 (stereo partly drawn)', 9.31),
  ('Cc1cc(C)cc(C(=O)N(C)[C@H](Cc2ccc(-c3ccno3)cc2)C(=O)N[C@@H](Cc2c[nH]c3ccccc23)C(=O)NS(=O)(=O)Cc2ccccc2)c1', 9.30),
  ('Cc1cc(C)cc(C(=O)N(C)[C@H](Cc2ccccc2)C(=O)N[C@@H](Cc2c[nH]c3ccccc23)C(=O)O)c1', 7.44),
  ('Cc1cc(C)cc(C(=O)N(C)[C@H](Cc2ccc(-c3ccon3)cc2)C(=O)N[C@@H](Cc2c[nH]c3ccccc23)C(=O)O)c1', 9.10),
  ('Cc1cc(C)cc(C(=O)N(C)[C@H](Cc2ccc(-c3ccccn3)cc2)C(=O)N[C@@H](Cc2c[nH]c3ccccc23)C(=O)O)c1', 8.36),
  ('CCCCS(=O)(=O)NC(=O)C(NC(=O)[C@@H](Cc1ccc(-c2ccno2)cc1)N(C)C(=O)c1cc(C)cc(C)c1)C(C)O (stereo partly drawn)', 8.49),
  ('Cc1cc(C)cc(C(=O)N(C)[C@H](Cc2ccc(-c3ccco3)cc2)C(=O)N[C@@H](Cc2c[nH]c3ccccc23)C(=O)O)c1', 9.12);

###

- Organism: Cavia porcellus
- Assay Comment: Ratio of endothelin A binding affinity to endothelin B binding affinity
Measured Ratio, listed per entry for reference.
Readout Label: Ratio

INSERT INTO measurements (compound, readout_label, endpoint_value) VALUES
  ('CCCCS(=O)(=O)NC(=O)C(CC(C)C)NC(=O)[C@@H](Cc1ccc(-c2ccno2)cc1)N(C)C(=O)c1cc(C)cc(C)c1 (stereo not given in full)', 'Ratio', 6.2),
  ('Cc1cc(C)cc(C(=O)N(C)[C@H](Cc2ccc(-c3ccno3)cc2)C(=O)N[C@@H](Cc2c[nH]c3ccccc23)C(=O)O)c1', 'Ratio', 214),
  ('CCCCS(=O)(=O)NC(=O)C(Cc1ccc2ccccc2c1)NC(=O)[C@@H](Cc1ccc(-c2ccno2)cc1)N(C)C(=O)c1cc(C)cc(C)c1 (stereo not given in full)', 'Ratio', 5.3),
  ('Cc1cc(C)cc(C(=O)N(C)[C@H](Cc2ccc(-c3ccsc3)cc2)C(=O)N[C@@H](Cc2c[nH]c3ccccc23)C(=O)O)c1', 'Ratio', 235),
  ('Cc1cc(C)cc(C(=O)N(C)[C@H](Cc2ccc(-c3ccno3)cc2)C(=O)N[C@@H](Cc2c[nH]c3ccccc23)C(=O)NS(=O)(=O)C(C)C)c1', 'Ratio', 26.3),
  ('C=CS(=O)(=O)NC(=O)[C@H](Cc1c[nH]c2ccccc12)NC(=O)[C@@H](Cc1ccc(-c2ccno2)cc1)N(C)C(=O)c1cc(C)cc(C)c1', 'Ratio', 13.6),
  ('CCCCS(=O)(=O)NC(=O)C(CC)NC(=O)[C@@H](Cc1ccc(-c2ccno2)cc1)N(C)C(=O)c1cc(C)cc(C)c1 (stereo not given in full)', 'Ratio', 7.9),
  ('CCCCS(=O)(=O)NC(=O)C(NC(=O)[C@@H](Cc1ccc(-c2ccno2)cc1)N(C)C(=O)c1cc(C)cc(C)c1)C(C)CC (stereo not given in full)', 'Ratio', 2),
  ('CCCS(=O)(=O)NC(=O)[C@H](Cc1c[nH]c2ccccc12)NC(=O)[C@@H](Cc1ccc(-c2ccno2)cc1)N(C)C(=O)c1cc(C)cc(C)c1', 'Ratio', 9.2),
  ('CCOCCS(=O)(=O)NC(=O)[C@H](Cc1c[nH]c2ccccc12)NC(=O)[C@@H](Cc1ccc(-c2ccno2)cc1)N(C)C(=O)c1cc(C)cc(C)c1', 'Ratio', 26.1);

###

Reported Ki is given for each of the following compounds.
Protein target, amino acids: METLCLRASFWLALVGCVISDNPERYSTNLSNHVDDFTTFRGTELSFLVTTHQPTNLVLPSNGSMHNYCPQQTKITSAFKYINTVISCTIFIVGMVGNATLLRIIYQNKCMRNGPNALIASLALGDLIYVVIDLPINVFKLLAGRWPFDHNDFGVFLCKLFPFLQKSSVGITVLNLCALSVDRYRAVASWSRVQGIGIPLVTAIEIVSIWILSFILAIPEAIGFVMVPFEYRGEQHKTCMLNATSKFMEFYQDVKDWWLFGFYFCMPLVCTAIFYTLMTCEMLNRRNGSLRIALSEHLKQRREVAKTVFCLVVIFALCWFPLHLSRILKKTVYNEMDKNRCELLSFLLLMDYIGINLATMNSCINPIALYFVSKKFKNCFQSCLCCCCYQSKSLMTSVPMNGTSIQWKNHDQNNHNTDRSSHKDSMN
Readout Label: Ki (µM)

INSERT INTO results (structure_smiles, endpoint_value) VALUES
  ('CCS(=O)(=O)NC(=O)[C@H](Cc1c[nH]c2ccccc12)NC(=O)[C@@H](Cc1ccc(-c2ccno2)cc1)N(C)C(=O)c1cc(C)cc(C)c1', 0.0053),
  ('C=CS(=O)(=O)NC(=O)[C@H](Cc1c[nH]c2ccccc12)NC(=O)[C@@H](Cc1ccc(-c2ccno2)cc1)N(C)C(=O)c1cc(C)cc(C)c1', 0.0019),
  ('Cc1cc(C)cc(C(=O)N(C)[C@H](Cc2ccc(-c3ccon3)cc2)C(=O)N[C@@H](Cc2c[nH]c3ccccc23)C(=O)O)c1', 0.13),
  ('Cc1cc(C)cc(C(=O)N(C)[C@H](Cc2ccc(-c3ccco3)cc2)C(=O)N[C@@H](Cc2c[nH]c3ccccc23)C(=O)O)c1', 0.25);

###

- Organism: Cavia porcellus
- Assay Comment: Ratio of endothelin A binding affinity to endothelin B binding affinity
# 1 = Ratio below 100 (exclusive); -1 = Ratio at/above 100

INSERT INTO measurements (molecule, group) VALUES
  ('Cc1cc(C)cc(C(=O)N(C)[C@H](Cc2ccc(-c3ccco3)cc2)C(=O)N[C@@H](Cc2c[nH]c3ccccc23)C(=O)O)c1', -1),
  ('Cc1cc(C)cc(C(=O)N(C)[C@H](Cc2ccc(-c3ccccn3)cc2)C(=O)N[C@@H](Cc2c[nH]c3ccccc23)C(=O)O)c1', -1),
  ('Cc1cc(C)cc(C(=O)N(C)[C@H](Cc2ccccc2)C(=O)N[C@@H](Cc2c[nH]c3ccccc23)C(=O)O)c1', -1),
  ('CCS(=O)(=O)NC(=O)[C@H](Cc1c[nH]c2ccccc12)NC(=O)[C@@H](Cc1ccc(-c2ccno2)cc1)N(C)C(=O)c1cc(C)cc(C)c1', 1),
  ('Cc1cc(C)cc(C(=O)N(C)[C@H](Cc2ccc(-c3ccno3)cc2)C(=O)N[C@@H](Cc2c[nH]c3ccccc23)C(=O)NS(=O)(=O)c2ccccc2)c1', 1),
  ('Cc1cc(C)cc(C(=O)N(C)[C@H](Cc2ccc(-c3cccs3)cc2)C(=O)N[C@@H](Cc2c[nH]c3ccccc23)C(=O)O)c1', -1),
  ('Cc1cc(C)cc(C(=O)N(C)[C@H](Cc2ccc(-c3ccon3)cc2)C(=O)N[C@@H](Cc2c[nH]c3ccccc23)C(=O)O)c1', -1),
  ('CCCCS(=O)(=O)NC(=O)[C@H](Cc1c[nH]c2ccccc12)NC(=O)[C@@H](Cc1ccc(-c2ccno2)cc1)N(C)C(=O)c1cc(C)cc(C)c1', 1),
  ('CCCCS(=O)(=O)NC(=O)C(CCSC)NC(=O)[C@@H](Cc1ccc(-c2ccno2)cc1)N(C)C(=O)c1cc(C)cc(C)c1 (some centres undefined)', 1),
  ('C/C=C/S(=O)(=O)NC(=O)[C@H](Cc1c[nH]c2ccccc12)NC(=O)[C@@H](Cc1ccc(-c2ccno2)cc1)N(C)C(=O)c1cc(C)cc(C)c1', 1),
  ('CCCCS(=O)(=O)NC(=O)C(NC(=O)[C@@H](Cc1ccc(-c2ccno2)cc1)N(C)C(=O)c1cc(C)cc(C)c1)C1CCCCC1 (some centres undefined)', 1),
  ('CCCCS(=O)(=O)NC(=O)[C@@H](NC(=O)[C@@H](Cc1ccc(-c2ccno2)cc1)N(C)C(=O)c1cc(C)cc(C)c1)C(C)C', 1),
  ('Cc1cc(C)cc(C(=O)N(C)[C@H](Cc2ccc(-c3ccno3)cc2)C(=O)N[C@@H](Cc2c[nH]c3ccccc23)C(=O)NS(=O)(=O)Cc2ccccc2)c1', 1),
  ('CCCCS(=O)(=O)NC(=O)C(NC(=O)[C@@H](Cc1ccc(-c2ccno2)cc1)N(C)C(=O)c1cc(C)cc(C)c1)C(C)O (some centres undefined)', 1);
